System: MS2 coat protein
PROCEDURE_DETAILS: apparent Kd, MS2 coat protein; higher = weaker binding; RNA-MaP array; FMN 200 µM where present
CONDITION_CONTEXT: designed as: OFF switch for flavin mononucleotide; no ligand
# apparent Kd annotations

BIOPOLYMER_SEQUENCE	apparent Kd
AUGCUAGUGUGAGGAUAUUAACAUGAGGAUCACCCAUGUUGGAAGUACACGACAUGAGGUACAUUUAAGAAGGUACAUUAGCAU	0.145 µM
GCGUUUGUAUCACAUGUAUUACAUGAGGAUCACCCAUGUUACUAGGAUAUGUAUUAGUAUUAUCAACAGAAGGAGUAAGAACGC	0.0175 µM
CGAUAACAUAGUUAUCCGUAACGGACAUGAGGAUCACCCAUGUAGGAUAUGUUACUCAACGAGUAACAGAAGGACAUGAGUCCU	0.0118 µM
ACAUGAGGAUCACCCAUGUGAUGAUCUUCCAUGUCAUAUUUCAGAAGGCUCGCAUGUUUGAUGAGAGAGGAUAUGGAAUAUGCG	0.79 µM
AACUCGUCAGGAUAUGCGCGCAGAUAAUACGCUUCGCAAUUGCAGAAGGGACAUGAGGAUCACCCAUGUAAAUA	0.0298 µM

====

Test system: MS2 coat protein
PROCEDURE_DETAILS: apparent Kd, MS2 coat protein; higher = weaker binding; RNA-MaP array; theophylline 2 mM where present
CONDITION_CONTEXT: ligand present: theophylline; designed as: ON switch for theophylline
# apparent Kd annotations
VALUE_KIND: apparent Kd

BIOPOLYMER_SEQUENCE	VALUE_KIND	MEASURED
UAUAUAAUAACAGAUACCAGCGUGUUAUAAAACAUGAGGAUCACCCAUGUAGUGAUCAAGCGCCCUUGGCAGCUGGUAUUAUAUA	apparent Kd	146 nM
AGUCUAUGGAGAGAUACCAGUGAGAGCCAUAGACAUGAGGAUCACCCAUGUGACAUGGAUCACCCUUGGCAGCUCAACGAGCUCU	apparent Kd	20.2 nM
AUAACAUGAGGAUCACCCAUGUAGAGUGAUACCAGACUAUGUAAUGUCCCUUGGCAGCACAAGUAAAGUUAUAAAUAAUGAUAGA	apparent Kd	27.2 nM
UAUAACAUGAGGAUCACCCAUGUAAGUGAUACCAGAUAAAUAAUAGUCCCUUGGCAGCAUAUUGGGAAAGUGUAUAAUAUAUAUU	apparent Kd	57 nM

====

System: MS2 coat protein
PROCEDURE_DETAILS: apparent Kd, MS2 coat protein; higher = weaker binding; RNA-MaP array; FMN 200 µM where present
CONDITION_CONTEXT: ligand present: flavin mononucleotide; designed as: ON switch for flavin mononucleotide
VALUE_KIND: apparent Kd (nM)

BIOPOLYMER_SEQUENCE	VALUE_KIND	MEASURED
GGAAUAUUUACAGGAUAUGUUUUGUUAAGUCGAGCAGAAGGGUAGAUGUCUUACACGGUUUGUUACAUGAGGAUCACCCAUGUU	apparent Kd	35.1
GUUUCUAUAAGUUAUAUUUAACAGUCAGAAGGUGAUACUACGACAUGAGGAUCACCCAUGUAAUUCAAGGAUAUGAACUUAAUC	apparent Kd	999
CGCUGUCAUGCAGGAUAUGCAUUGGAUUACAAUGCAGAAGGGCGAUUACAUGAGGAUCACCCAUGUGUAGACAGUGAAGAAGAG	apparent Kd	34.4
GGUACUAUCACAGGAUAUGCUUUCCUUUGGGAAGCAGAAGGGUGUAACAUGAGGAUCACCCAUGUGGUGCCAGGGCGUGGGCCC	apparent Kd	17
UUAAUCUAUACAGGAUAUCCAUACGCUGCAUACGGAGAAGGGUAACAAUCAUGAGGACAUGAGGAUCACCCAUGUUUUGAGCAU	apparent Kd	26.3
CGGAAUUGUACAGGAUAUGAGGGUGCCUGAGCCUCAGAAGGGUAGACCGACAUGAGGAUCACCCAUGUAUGUGGAUAACGUCCG	apparent Kd	336
CAAUUGGCACAGAAGGGUGACAUGAGGAUCACCCAUGUAGCGUGGCAUUCAGGAGGAGCCACGCCACAGGAUAUGUGCGGGCAC	apparent Kd	155
AAGAUACAUGAGGAUCACCCAUGUCGAGAGAGACGAGGAUAUCUGAAUCGAUUAGAUUACGGAGAAGGCGUGAAAA	apparent Kd	25.6
GUGGGAAUCACAGGAUAUACAUGCGCCGCUUCGUUCUACAUGAGGAUCACCCAUGUGUGGUCCGUGUAGAAGGGUGUUUGUUAC	apparent Kd	10.8
AUGAUUAUAUUAUACAUGAGGAUCACCCAUGUUAUAAGUCAUGAGGAUAUGGUAUUGUAGUUAUUCCAGAAGGCAUUUAACUUA	apparent Kd	5.79
UAGUAUCAACGAGGAUAUAAUAUGUUCAAUUUUUUAUAUUGUUUACAUGAGGAUCACCCAUGUUAUUAGAAGGCGUAUGGGAUU	apparent Kd	47.7
GGGAGACAUGAGGAUCACCCAUGUGAAAACGUGCGAGGAUAUCAAUGGAAACCAUACUGUUGAGAAGGCGUUUGUC	apparent Kd	55
